Could you please report measured GASTRO-INTESTINAL ULCERABILITY (power ratio relative to the corresponding acid) for the items listed next?
- System: gastrointestinal ulcerogenicity
- methodSummary: Gastrointestinal ulcerability after oral administration
- Format: in vivo, rat
- conditionInfo: oral administration in the rat; ratio to corresponding acid; mean of 10 animals
- Protocol: The anti-inflammatory and anti-platelet aggregation activity as well as the gastrointestinal ulcerogenicity, for instance of nitric esters having the following formulae, were tested by means of biological studies: [drawing 16] The gastrointestinal ulcerability was evaluated by oral administration in the rat. […]

Examples with answers:
# molecule, assayResult
measured = [
    ("CC(C(=O)OCCCCO[N+](=O)[O-])c1ccc(C(=O)c2cccs2)cc1 (centres unmarked)", "0,35"),
    ("CCc1cccc2c3c([nH]c12)C(CC)(CC(=O)OCCCCO[N+](=O)[O-])OCC3 (centres unmarked)", "0,33"),
    ("CCC(C(=O)OCCCCO[N+](=O)[O-])c1ccc(N2Cc3ccccc3C2=O)cc1 (centres unmarked)", "0,30"),
]

# per-item lookup of GASTRO-INTESTINAL ULCERABILITY (power ratio relative to the corresponding acid); items listed below
1. CC(C(=O)OCCCCO[N+](=O)[O-])c1cccc(C(=O)c2ccccc2)c1 (centres unmarked)
2. CCC(C(=O)O)c1ccc(N2Cc3ccccc3C2=O)cc1 (centres unmarked) [Indobufen, reference compound]

Ans.
0,20
1

Origin of measurements: patent US5621000A
